tgt: human AT1 receptor (Homo sapiens, UniProt P30556)
Construct: expressed in transfected cells; host or cells: CHO-K1
Sequence (P30556 whole entry): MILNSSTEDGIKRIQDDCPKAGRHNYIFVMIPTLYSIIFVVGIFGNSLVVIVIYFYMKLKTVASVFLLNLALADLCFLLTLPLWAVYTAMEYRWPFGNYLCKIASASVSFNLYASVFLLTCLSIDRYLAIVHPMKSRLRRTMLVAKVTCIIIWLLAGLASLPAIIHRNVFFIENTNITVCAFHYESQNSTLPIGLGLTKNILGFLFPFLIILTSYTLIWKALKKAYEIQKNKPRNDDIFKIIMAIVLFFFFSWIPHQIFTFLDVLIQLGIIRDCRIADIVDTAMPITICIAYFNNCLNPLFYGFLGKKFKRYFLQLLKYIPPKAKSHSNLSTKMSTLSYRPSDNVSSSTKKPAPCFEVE
measurementDescription: Binding assay using human AT1 receptor-expressing CHO-K1 cell membrane fraction ([125I]-angiotensin II)
conditionLabel: 22.5 pM [125I]-angiotensin II, 9 μg AT1 membrane, 1 hr room temperature; read-out: AT1 receptor binding inhibitory action (IC50 (nM))
endpoint: IC50 (nM)

[[record]]
compound = "CCCCc1nc(C)n(-c2ccc(OCC)cc2)c(=O)c1Cc1ccc(-c2ccccc2-c2noc(=O)[nH]2)cc1"
endpoint = "IC50"
result = 1.3

[[record]]
compound = "CCCCc1nc(OC)n(-c2ccccc2)c(=O)c1Cc1ccc(-c2ccccc2-c2noc(=O)[nH]2)cc1"
endpoint = "IC50"
result = 2.2

[[record]]
compound = "CCCc1nc(CC)n(-c2ccc(O[C@H]3CC[C@H](O)CC3)cc2)c(=O)c1Cc1ccc(-c2ccccc2-c2noc(=O)[nH]2)cc1"
endpoint = "IC50"
result = 1.1

[[record]]
compound = "CCSc1nc(C)c(Cc2ccccc2)c(=O)n1Cc1ccc(-c2ccccc2-c2noc(=O)[nH]2)cc1"
endpoint = "IC50"
result = 2.5

[[record]]
compound = "CCCc1nc(C)n(-c2cc(F)c3c(c2)CC(C)(C)O3)c(=O)c1Cc1ccc(-c2ccccc2-c2noc(=O)[nH]2)cc1"
endpoint = "IC50"
result = 1.8

[[record]]
compound = "CCCCc1nc(C)n(-c2ccc3c(c2)CC(C)(C)O3)c(=O)c1Cc1ccc(-c2ccccc2-c2noc(O)n2)cc1"
endpoint = "IC50"
result = 1.2

[[record]]
compound = "CCCc1nc(CC)n(-c2ccc(OC(C)(C)COC)cc2)c(=O)c1Cc1ccc(-c2ccccc2-c2noc(=O)[nH]2)cc1"
endpoint = "IC50"
result = 1.7

[[record]]
compound = "CCCc1nc(C)c(-c2ccc(OC(C)C)nc2)c(=O)n1Cc1ccc(-c2ccccc2-c2noc(=O)[nH]2)cc1F"
endpoint = "IC50"
result = 1.9


I: CCCc1nc(CC)n(-c2ccc(OC3CCOCC3)nc2)c(=O)c1Cc1ccc(-c2ccccc2-c2noc(=O)[nH]2)cc1
II: CCCc1ncn(-c2ccc3c(c2)CC(C)(C)O3)c(=O)c1Cc1ccc(-c2ccccc2-c2noc(=O)[nH]2)cc1
III: CCCc1nc(CC)n(-c2ccc(OC3CCCC(O)C3)cc2)c(=O)c1Cc1ccc(-c2ccccc2-c2noc(=O)[nH]2)cc1 (stereo not drawn)
Output the entries ranked by IC50 from maximum down to minimum. Use the labels to give the ranking in the order requested. II, I, III
(II: 2.6 nM, I: 1.5 nM, III: 0.9 nM)

P: CCCc1nc(OC)n(-c2ccc(OC(C)C)cc2)c(=O)c1Cc1ccc(-c2ccccc2-c2noc(O)n2)cc1
Q: CCCc1nc(CC)c(-c2ccc(OC(C)(C)CO)cc2)c(=O)n1Cc1ccc(-c2ccccc2-c2noc(O)n2)cc1
R: CCCc1nc(C)n(OC2CCOCC2)c(=O)c1Cc1ccc(-c2ccccc2-c2noc(=O)[nH]2)cc1
Order the records, beginning with the lowest IC50 and ending with the highest. To answer, write out the labels according to the requested order. Q, P, R
(Q: 1.3 nM, P: 2 nM, R: 3.4 nM)

A: CCCc1nc(OC)n(-c2ccc(OC(C)(C)C)cc2)c(=O)c1Cc1ccc(-c2ccccc2-c2noc(O)n2)cc1
B: CCCCc1nc(C)n(CC(=O)C(C)(C)C)c(=O)c1Cc1ccc(-c2ccccc2-c2noc(=O)[nH]2)cc1
Sort A and B by IC50 descending and give the first. Select an item and report its label. A

====

tgt: human AT1 receptor (Homo sapiens, UniProt P30556)
Construct: expressed in transfected cells; host or cells: CHO-K1
measurementDescription: Binding assay using human AT1 receptor-expressing CHO-K1 cell membrane fraction ([125I]-angiotensin II)
conditionLabel: 22.5 pM [125I]-angiotensin II, 9 μg AT1 membrane, 1 hr room temperature; read-out: AT1 receptor binding inhibitory action (IC50 (nM))
endpoint: IC50 (nM)

Solved cases below.
[[record]]
compound = "CCCc1nc(C)n(-c2ccc(OC(C)C)cc2)c(=O)c1Cc1ccc(-c2ccccc2-c2noc(=O)[nH]2)cc1Cl [Example 396]"
result = 2.2

[[record]]
compound = "C#CCC(C)Oc1ccc(-n2c(C)nc(CCC)c(Cc3ccc(-c4ccccc4-c4noc(=O)[nH]4)cc3)c2=O)cc1 (centres unmarked) [Example 324]"
result = 1.7

[[record]]
compound = "CCCc1nc(CC)n(-c2ccc(OC(C)C)nc2)c(=O)c1Cc1ccc(-c2ccccc2-c2noc(=O)[nH]2)cc1 [Example 373]"
result = 2.4

[[record]]
compound = "CCCCc1nc(C)n(Cc2ccc(OC)cc2)c(=O)c1Cc1ccc(-c2ccccc2-c2noc(=O)[nH]2)cc1 [Example 58]"
result = 1.5


I: CCCc1nc(CC)n(-c2ccc(OC3CCC(=O)CC3)cc2)c(=O)c1Cc1ccc(-c2ccccc2-c2noc(=O)[nH]2)cc1 [Example 416]
II: CCCc1nc(C)n(C=C(C)C)c(=O)c1Cc1ccc(-c2ccccc2-c2noc(=O)[nH]2)cc1 [Example 323]
Min IC50? I | II Refer to your chosen entry by its label in the reply. I

P: CCCc1nc(CC)n(-c2ccc(OC(C)C)cc2)c(=O)c1Cc1ccc(-c2ccccc2-c2noc(=O)[nH]2)cc1 [Example 362]
Q: CCCc1nc(C)n(-c2ccc(OC(C)C)cc2)c(=O)c1Cc1ccc(-c2ccccc2-c2noc(=O)[nH]2)c(F)c1 [Example 401]
Could you kindly indicate whether P or Q has the higher IC50 value? // respond with label for picked entry P
(P: 2.4 nM, Q: 1.5 nM)

====

Form field: activation at 1 µM (one value per entry).
tgt: PPARγ (Homo sapiens)
Construct: expressed in transfected cells; host or cells: CHO-K1
measurementDescription: Evaluation of PPARγ activating action (luciferase reporter in PPARγ:RXRα:4ERPP/CHO-K1 cells)
Format: cell-based
conditionLabel: CHO-K1, 24 h, read-out: PPARγ activating action (activation % (10^−6 M))
Where a name gives a salt, the structure may show the parent alone.
Please state the figure in %; there is no need to write the unit.

Solved entries (count: 6):
[[record]]
compound = "CCCc1nc(CC)c(Oc2cccc(OC)c2)c(=O)n1Cc1ccc(-c2ccccc2-c2noc(O)n2)cc1 [Example 488, potassium salt]"
result = 16.7

[[record]]
compound = "CCCc1nc(CC)n(-c2ccc3c(c2)CC(C)O3)c(=O)c1Cc1ccc(-c2ccccc2-c2noc(O)n2)cc1 (centres unmarked) [Example 312, potassium salt]"
result = 50.3

[[record]]
compound = "CCCc1nc(CC)c(C(O)C(C)C)c(=O)n1Cc1ccc(-c2ccccc2-c2noc(O)n2)cc1 (centres unmarked) [Example 473, potassium salt]"
result = 15.7

[[record]]
compound = "CCCCc1nc(CC)n(Cc2ccccc2)c(=O)c1Cc1ccc(-c2ccccc2-c2noc(=O)[nH]2)cc1 [Example 105]"
result = 64.1

[[record]]
compound = "CCCc1nc(C)c(Oc2ccc(OC)cc2)c(=O)n1Cc1ccc(-c2ccccc2-c2noc(O)n2)cc1 [Example 476, potassium salt]"
result = 18.5

[[record]]
compound = "CCCCc1nc(C2CC2)n(-c2ccccc2)c(=O)c1Cc1ccc(-c2ccccc2-c2noc(=O)[nH]2)cc1 [Example 310, potassium salt]"
result = 27.1


PPARγ (Homo sapiens) / activation at 1 µM / CCCc1nc(CC)n(-c2ccc3c(c2)CCO3)c(=O)c1Cc1ccc(-c2ccccc2-c2noc(O)n2)cc1 [Example 311, potassium salt] : value? 38.1

Now this one: CCCc1nc(CC)n(-c2ccc(OC)cc2)c(=O)c1Cc1ccc(-c2ccccc2-c2noc(O)n2)cc1 [Example 313, potassium salt] 31

====

tgt: PPARγ (Homo sapiens)
Construct: expressed in transfected cells; host or cells: CHO-K1
Sequence (P37231 1-477 isoform P37231-2): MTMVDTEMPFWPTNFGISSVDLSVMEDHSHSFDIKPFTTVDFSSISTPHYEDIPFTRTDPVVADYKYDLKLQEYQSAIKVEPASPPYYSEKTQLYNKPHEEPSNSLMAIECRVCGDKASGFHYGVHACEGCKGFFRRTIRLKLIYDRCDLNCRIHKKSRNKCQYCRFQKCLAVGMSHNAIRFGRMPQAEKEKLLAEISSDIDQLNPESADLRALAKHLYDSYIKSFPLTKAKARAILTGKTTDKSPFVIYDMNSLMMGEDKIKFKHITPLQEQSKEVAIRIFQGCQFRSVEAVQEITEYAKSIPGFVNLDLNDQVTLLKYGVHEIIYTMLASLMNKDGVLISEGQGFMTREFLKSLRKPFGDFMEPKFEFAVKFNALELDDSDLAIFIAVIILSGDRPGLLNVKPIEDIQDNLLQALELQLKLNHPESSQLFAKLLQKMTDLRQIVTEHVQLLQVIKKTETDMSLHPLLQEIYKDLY
Sequence (P19793 1-462 partner): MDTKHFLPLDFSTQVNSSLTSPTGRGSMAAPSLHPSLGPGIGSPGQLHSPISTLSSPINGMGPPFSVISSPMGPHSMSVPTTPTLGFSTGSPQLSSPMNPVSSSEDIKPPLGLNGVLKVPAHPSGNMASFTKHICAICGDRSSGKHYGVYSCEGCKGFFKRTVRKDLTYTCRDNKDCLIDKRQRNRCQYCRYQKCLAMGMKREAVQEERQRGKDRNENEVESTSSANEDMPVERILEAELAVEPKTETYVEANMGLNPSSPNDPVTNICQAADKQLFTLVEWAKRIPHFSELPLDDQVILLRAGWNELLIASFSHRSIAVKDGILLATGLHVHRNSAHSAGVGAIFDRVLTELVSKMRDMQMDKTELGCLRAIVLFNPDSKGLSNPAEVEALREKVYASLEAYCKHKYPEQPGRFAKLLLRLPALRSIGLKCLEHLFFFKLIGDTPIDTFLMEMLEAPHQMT
measurementDescription: Evaluation of PPARγ activating action (luciferase reporter in PPARγ:RXRα:4ERPP/CHO-K1 cells)
Type: cell-based
conditionLabel: CHO-K1, 24 h; test compound 10^−6 M; luciferase activity relative to control compound X (1 μM) = 100%, non-administration group = 0%; read-out: PPARγ activating action (activation % (10^−6 M))
endpoint: activation at 1 µM (%)

[[record]]
molecule = "CCCc1nc(C)c(Cc2ccccc2)c(=O)n1Cc1ccc(-c2ccccc2-c2noc(=O)[nH]2)cc1 [Example 287]"
endpoint = "activation at 1 µM"
result = 40.9

[[record]]
molecule = "CCCc1nc(C)n(-c2ccc(O[C@@H]3C[C@@H](C)O[C@@H](C)C3)cc2)c(=O)c1Cc1ccc(-c2ccccc2-c2noc(=O)[nH]2)cc1F [Example 338]"
endpoint = "activation at 1 µM"
result = 32.5

[[record]]
molecule = "CCCc1nc(CC)n(-c2ccc(O[C@@H]3C[C@@H](C)O[C@@H](C)C3)cc2)c(=O)c1Cc1ccc(-c2ccccc2-c2noc(=O)[nH]2)cc1 [Example 417]"
endpoint = "activation at 1 µM"
result = 33.7

[[record]]
molecule = "CCCCc1nc(C)n(Cc2noc(-c3ccccc3)n2)c(=O)c1Cc1ccc(-c2ccccc2-c2noc(=O)[nH]2)cc1 [Example 152]"
endpoint = "activation at 1 µM"
result = 64.8

[[record]]
molecule = "CCCc1nc(CC)n(-c2ccc(OC(C)(C)C)cc2)c(=O)c1Cc1ccc(-c2ccccc2-c2noc(=O)[nH]2)cc1 [Example 364]"
endpoint = "activation at 1 µM"
result = 32.6


A: CCCc1nc(C)n(-c2ccc3c(c2)C(O)CC(C)(C)O3)c(=O)c1Cc1ccc(-c2ccccc2-c2noc(=O)[nH]2)cc1 (stereo not shown) [Example 144]
B: CCCc1nc(CC)c(-c2ccc(OC(C)C)nc2)c(=O)n1Cc1ccc(-c2ccccc2-c2noc(O)n2)cc1F [Example 467]
Min activation at 1 µM? A | B Please respond with the label that marks your chosen entry. A
(A: 22.7%, B: 35.7%)

Reference for the values: patent US20100056526A1
